meta.source: paper PMC3834215

Target: 20S human proteasome (Homo sapiens, UniProt P28074)
Assay: Cell-free inhibition of chymotrypsin-like (CT-like) activity of 20S proteasome
Conditions: 30 min pre-incubation, 37 °C, pH 7.5, N-Suc-LLVT-AMC 0.080 mM; read-out: IC50 on 20S isoform (CT-like activity)
READOUT KIND: IC50 (µM)
One number for each entry, in µM.

[
  {
    "COMPOUND": "CCCCC/C=C\\C=C\\CCCCCCCCC(=O)O [t10,c12-CLA, trans10,cis12 (t10,c12-CLA)]",
    "UNIT OF MEASURE": "µM",
    "IC50": 14.8
  }
]

Okay, next one:
Prompt: Using the record for CCCCCC/C=C/C=C\CCCCCCCC(=O)O [c9,t11-CLA, cis9,trans11 (c9,t11-CLA)] , report its IC50.
Completion: 31.2
